Exercise: for every item that follows, state its recorded Binding Kb.
Target: T1, Human chemokine receptor CXCR4 (human, UniProt P61073 1-352)
T1 construct: whole, on cells; Membranes of Chem-1 cells expressing human CXCR4 (0.5 ug membrane protein per aliquot); also called C-X-C chemokine receptor type 4; fusin
T1 sequence (P61073 whole entry): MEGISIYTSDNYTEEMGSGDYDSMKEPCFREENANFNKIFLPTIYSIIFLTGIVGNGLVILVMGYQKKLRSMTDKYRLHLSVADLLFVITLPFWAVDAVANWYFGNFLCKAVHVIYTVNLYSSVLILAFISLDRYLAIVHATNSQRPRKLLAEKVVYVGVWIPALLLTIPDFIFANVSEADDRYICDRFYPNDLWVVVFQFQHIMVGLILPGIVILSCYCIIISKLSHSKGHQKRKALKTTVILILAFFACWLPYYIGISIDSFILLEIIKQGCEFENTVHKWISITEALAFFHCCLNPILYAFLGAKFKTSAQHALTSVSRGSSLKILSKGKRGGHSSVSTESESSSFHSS
Assay: displacement of [125I]SDF-1α (0.03 nM) from membranes of Chem-1 cells expressing human CXCR4
Bridge positions count the residues as written; N and C are the ends. Square brackets hold non-standard residues; d marks the D form. * marks the point of attachment. 2Nal = N[C@@H](Cc1ccc2ccccc2c1)C(=O)O; Palmitoyl = CCCCCCCCCCCCCCCC(=O)*; hCys = N[C@@H](CCS)C(=O)O; PhAc = O=C(Cc1ccccc1)*; Bz = O=C(c1ccccc1)*; Mpa = O=C(O)CCS; iPr = CC(C)*
Note: unit nM is implicit; provide only the numeric part.

Prompt line: Retrieve Binding Kb measured for [Mpa]YR[dR][2Nal]GCRG[dF]G-NH2 (disulfide 1-7; also: acetate salt, Acetate salt; also called MLB-001) [cyclo[Mpa-Tyr-Arg-(D-Arg)-2Nal-Gly-Cys]-Arg-Gly-(D-Phe)-Gly-NH2] and print it.
Response line: 7.3

Prompt line: Retrieve Binding Kb measured for Ac-CYK(iPr)[dR][2Nal]GCK(iPr)G-NH2 (linker 1-7 via 1,3‑bis(methylene)benzene; also: acetate salt, Acetate salt) [MLB-033 (compound of Example 23; structure given only as drawing CHEM-US-00016)] and print it.
Response line: 0.99

Prompt line: Retrieve Binding Kb measured for Bz-[hCys]YK(iPr)[dR][2Nal]GCK(iPr)G-NHEt (disulfide 1-7; also: acetate salt, Acetate salt; also called MLB-024) [Benzoyl-cyclo[hCys-Tyr-Lys(iPr)-(D-Arg)-2Nal-Gly-Cys]-Lys(iPr)-Gly-NH(Et)] and print it.
Response line: 0.39

Prompt line: Retrieve Binding Kb measured for Bz-[hCys]YK(iPr)[dR][2Nal]GCK(iPr)G-NH2 (disulfide 1-7; also: acetate salt, Acetate salt; also called MLB-021) [Benzoyl-cyclo[hCys-Tyr-Lys(iPr)-(D-Arg)-2Nal-Gly-Cys]-Lys(iPr)-Gly-NH2] and print it.
Response line: 0.13

Prompt line: Retrieve Binding Kb measured for [Mpa]YK(iPr)[dR][2Nal]GCK(iPr)K(Palmitoyl)-NHEt (disulfide 1-7; also: acetate salt, Acetate salt; also called MLB-029) [cyclo[Mpa-Tyr-Lys(iPr)-(D-Arg)-2Nal-Gly-Cys]-Lys(iPr)-Lys(palmitoyl)-NH(Et)] and print it.
Response line: 3.2

Prompt line: Retrieve Binding Kb measured for PhAc-[hCys]YK(iPr)[dR][2Nal]GCK(iPr)G-NH2 (disulfide 1-7; also: acetate salt, also called MLB-025) [Phenylacetyl-cyclo[hCys-Tyr-Lys(iPr)-(D-Arg)-2Nal-Gly-Cys]-Lys(iPr)-Gly-NH2] and print it.
Response line: 0.25

Prompt line: Retrieve Binding Kb measured for Bz-CYK(iPr)[dR][2Nal]G[hCys]K(iPr)G-NH2 (disulfide 1-7; also: acetate salt, Acetate salt; also called MLB-022) [Benzoyl-cyclo[Cys-Tyr-Lys(iPr)-(D-Arg)-2Nal-Gly-hCys]-Lys(iPr)-Gly-NH2] and print it.
Response line: 0.21

Prompt line: Retrieve Binding Kb measured for [Mpa]YK(iPr)[dR][2Nal]GCRG[dF]G-NH2 (disulfide 1-7; also: acetate salt, Acetate salt; also called MLB-002) [cyclo[Mpa-Tyr-Lys(iPr)-(D-Arg)-2Nal-Gly-Cys]-Arg-Gly-(D-Phe)-Gly-NH2] and print it.
Response line: 0.28

Prompt line: Retrieve Binding Kb measured for [Mpa]YK(iPr)[dR][2Nal]GC[dR]G[dF]G-NH2 (disulfide 1-7; also: acetate salt, also called MLB-004) [cyclo[Mpa-Tyr-Lys(iPr)-(D-Arg)-2Nal-Gly-Cys]-(D-Arg)-Gly-(D-Phe)-Gly-NH2] and print it.
Response line: 0.21

Prompt line: Retrieve Binding Kb measured for Bz-CYK(iPr)[dR][2Nal]GCK(iPr)G-NH2 (linker 1-7 via 1,2‑bis(methylene)benzene; also: acetate salt, Acetate salt) [MLB-030 (compound of Example 20; structure given only as drawing CHEM-US-00013)] and print it.
Response line: 0.39

Prompt line: Retrieve Binding Kb measured for Ac-[hCys]YK(iPr)[dR][2Nal]GCK(iPr)G-NHEt (disulfide 1-7; also: acetate salt, Acetate salt; also called MLB-026) [Ac-cyclo[hCys-Tyr-Lys(iPr)-(D-Arg)-2Nal-Gly-Cys]-Lys(iPr)-Gly-NH(Et)] and print it.
Response line: 0.27

Prompt line: Retrieve Binding Kb measured for Ac-CYK(iPr)[dR][2Nal]GCK(iPr)G-NH2 (linker 1-7 via 1,2‑bis(methylene)benzene; also: acetate salt, Acetate salt) [MLB-032 (compound of Example 22; structure given only as drawing CHEM-US-00015)] and print it.
Response line: 0.12
